Where do these numbers come from? They come from PubChem BioAssay (EPA / NIEHS).

- EXPERIMENTAL_DETAILS: ACEA_AR_antagonist_AUC_viability: ACEA Biosciences xCELLigence Real-Time Cell Analysis on Androgen Receptor Antagonism for Viability (AID 2283776);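 further: 22Rv1 human prostate cancer cells growing on impedance electrode plates; area under impedance growth curve at 80 h after dosing as viability; hits lower the growth signal relative to DMSO meaning cytotoxicity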
Results filed as inconclusive are left out. Active and inactive are the calls of the source. How the source made its calls: active means hit-call score of the fitted dose curve at least 0.9, where 1 is the maximum; inconclusive means response in the unintended direction; inactive means score below 0.9.
// classify into YES = active, NO = inactive

Some solved entries appear below for comparison.
[
  {
    "MOLECULE": "O=C1C2CC=CCC2C(=O)N1SC(Cl)(Cl)Cl (stereo not drawn)",
    "LABEL_VALUE": "YES"
  },
  {
    "MOLECULE": "CC(C)=CC1C(C(=O)OCc2coc(Cc3ccccc3)c2)C1(C)C (stereo not drawn)",
    "LABEL_VALUE": "YES"
  },
  {
    "MOLECULE": "COC(=O)c1c(C(F)F)nc(C(F)(F)F)c(C2=NCCS2)c1CC(C)C",
    "LABEL_VALUE": "NO"
  },
  {
    "MOLECULE": "N#Cc1c(Cl)cccc1Cl",
    "LABEL_VALUE": "NO"
  },
  {
    "MOLECULE": "O=P(O)(O)CCCl",
    "LABEL_VALUE": "NO"
  }
]

[Q] Name the outcome recorded for CCCC(=NOCC)C1=C(O)CC(CC(C)SCC)CC1=O (stereo not drawn) in the assay.
[A] NO

[Q] Name the outcome recorded for Cn1c(-c2ccccc2)cc(-c2ccccc2)[n+]1C in the assay.
[A] YES

[Q] Name the outcome recorded for CC(C)Oc1cccc(NC(=O)c2ccccc2C(F)(F)F)c1 in the assay.
[A] NO

[Q] Name the outcome recorded for Clc1cccc(C(Cl)(Cl)Cl)n1 in the assay.
[A] NO
